Hey, just so you know, these numbers are from paper PMC5540273.

Listed here are molecules together with their documented %Inh.
Test system: LKB1;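 note: KINOMEscan kinase panel screen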
Construct: gene STK11
Details: concentration: 1 μM, replicates: in singlicate; n = 1

{"columns": ["Molecule", "Units of measure", "%Inh"],
 "data": [
  ["CS(=O)(=O)CCNCc1ccc(-c2ccc3ncnc(Nc4ccc(OCc5ccccc5)c(Cl)c4)c3c2)o1.Cl [GW574783]", "%", 0],
  ["Nc1n[nH]c2nnc(-c3ccccc3)cc12 [SB-517389]", "%", 0],
  ["CNc1nccc(-c2c(-c3ccc(F)cc3)ncn2C2CCN(C)CC2)n1 [SB-222903]", "%", 0],
  ["Nc1nc(-c2ccc3c(N)n[nH]c3c2)cc(N2CCCCC2)n1 [GSK2228768]", "%", 0],
  ["FC(F)(F)c1ccc(-c2cc(-c3c[nH]nc3-c3ccccn3)ccn2)cc1 [GW599550]", "%", 12],
  ["Cn1ccc2ncnc(Nc3ccc(Oc4cccc(Cl)c4)c(Cl)c3)c21", "%", 0],
  ["Fc1cccc(COc2ccc(Nc3ncnc4nn5ccccc5c34)cc2Cl)c1 [GW689066]", "%", 14]
]}
